TARGET_DESC: Human GRIN1 and human GRIN2B expressing HEK293 cells (Homo sapiens)
Construct: host or cells: HEK293
ASSAY_EXPLANATION: NR2B Ca2+ flux assay
Type: cell-based
STUDY_CONDITIONS: 10 μM test compound, glutamic acid/glycine stimulated Fluo-4 fluorescence, FLIPR, read-out: inhibitory rate (@10 μM)
# key: entry, value: inhibition at 10 µM
Param answer (str): number followed by unit.

Would you please look over these solved cases?
{"MOLECULE": "CC(C)c1ccc(NC(=O)Cc2cccc3nccn23)cc1 [Example 66]", "inhibition at 10 µM": "92%"}
{"MOLECULE": "O=C(Cc1c(Cl)ccc2nccn12)Nc1ccc(OC(F)(F)F)cc1 [Example 91]", "inhibition at 10 µM": "91%"}
{"MOLECULE": "Cc1ccc(NC(=O)Cc2cccc3nccn23)cc1F [Example 15]", "inhibition at 10 µM": "91%"}
{"MOLECULE": "O=C(Cc1cccc2nccn12)Nc1ccc(C(F)(F)F)cc1Cl [Example 37]", "inhibition at 10 µM": "81%"}
{"MOLECULE": "O=C(Cc1cccc2nccn12)Nc1ccccc1 [Example 26]", "inhibition at 10 µM": "53%"}

In the following, a different molecule is considered.
# lookup: Human GRIN1 and human GRIN2B expressing HEK293 cells (Homo sapiens) inhibition at 10 µM, key = O=C(Cc1cccc2nccn12)Nc1cc(F)c(F)c(F)c1 [Example 9]
87%

---

TARGET_DESC: Human GRIN1 and human GRIN2B expressing HEK293 cells (Homo sapiens, UniProt Q13224)
Construct: host or cells: HEK293
Sequence (Q13224 27-1484, other chains not shown): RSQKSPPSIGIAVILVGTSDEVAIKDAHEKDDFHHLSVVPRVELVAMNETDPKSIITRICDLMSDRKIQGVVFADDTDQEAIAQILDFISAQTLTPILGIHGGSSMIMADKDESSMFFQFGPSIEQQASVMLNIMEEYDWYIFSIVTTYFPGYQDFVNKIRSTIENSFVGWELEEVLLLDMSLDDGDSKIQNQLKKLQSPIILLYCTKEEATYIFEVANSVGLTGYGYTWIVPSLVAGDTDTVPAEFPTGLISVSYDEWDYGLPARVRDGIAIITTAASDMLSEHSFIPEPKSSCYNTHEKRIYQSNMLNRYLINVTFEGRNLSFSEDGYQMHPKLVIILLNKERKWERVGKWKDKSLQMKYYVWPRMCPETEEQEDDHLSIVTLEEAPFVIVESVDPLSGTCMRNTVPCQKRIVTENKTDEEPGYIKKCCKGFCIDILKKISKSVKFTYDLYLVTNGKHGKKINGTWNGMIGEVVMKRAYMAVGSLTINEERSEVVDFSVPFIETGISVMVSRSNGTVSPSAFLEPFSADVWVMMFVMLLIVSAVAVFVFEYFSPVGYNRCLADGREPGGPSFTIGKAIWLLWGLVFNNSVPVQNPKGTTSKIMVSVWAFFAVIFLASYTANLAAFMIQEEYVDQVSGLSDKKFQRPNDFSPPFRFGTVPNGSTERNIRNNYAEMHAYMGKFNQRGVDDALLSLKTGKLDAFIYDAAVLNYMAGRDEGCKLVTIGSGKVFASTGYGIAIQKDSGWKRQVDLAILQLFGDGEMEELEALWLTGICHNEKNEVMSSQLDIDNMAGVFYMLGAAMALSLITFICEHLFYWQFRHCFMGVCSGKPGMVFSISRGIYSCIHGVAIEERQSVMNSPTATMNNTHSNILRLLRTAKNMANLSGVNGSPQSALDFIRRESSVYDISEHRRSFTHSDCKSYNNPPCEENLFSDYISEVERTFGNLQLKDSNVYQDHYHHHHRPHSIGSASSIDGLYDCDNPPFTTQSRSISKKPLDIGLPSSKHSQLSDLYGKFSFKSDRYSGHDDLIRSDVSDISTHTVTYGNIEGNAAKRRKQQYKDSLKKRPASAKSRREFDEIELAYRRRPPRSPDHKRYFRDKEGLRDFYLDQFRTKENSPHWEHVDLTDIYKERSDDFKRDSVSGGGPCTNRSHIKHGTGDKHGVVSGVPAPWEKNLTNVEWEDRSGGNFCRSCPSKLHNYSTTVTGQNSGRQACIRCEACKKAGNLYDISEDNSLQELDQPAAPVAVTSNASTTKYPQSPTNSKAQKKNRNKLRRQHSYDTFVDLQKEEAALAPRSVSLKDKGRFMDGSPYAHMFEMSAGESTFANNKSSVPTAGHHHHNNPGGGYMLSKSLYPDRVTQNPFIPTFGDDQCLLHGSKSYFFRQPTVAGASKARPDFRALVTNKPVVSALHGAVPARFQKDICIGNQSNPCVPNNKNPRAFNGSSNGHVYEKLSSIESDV
ASSAY_EXPLANATION: NR2B Ca2+ flux assay
Type: cell-based
STUDY_CONDITIONS: 10 μM test compound, glutamic acid/glycine stimulated Fluo-4 fluorescence, FLIPR, read-out: inhibitory rate (@10 μM)
MEASURED_QUANTITY: inhibition at 10 µM (%)
// return numeric value only (unit: %, not printed)

Would you please look over these solved cases?
{"COMPOUND": "O=C(Cc1cccc2nccn12)Nc1ccc(I)cc1", "TARGET_DESC": "Human GRIN1 and human GRIN2B expressing HEK293 cells (Homo sapiens, UniProt Q13224)", "OBS_VALUE": 91}
{"COMPOUND": "CCCc1ccc(NC(=O)Cc2cccc3nccn23)cc1", "TARGET_DESC": "Human GRIN1 and human GRIN2B expressing HEK293 cells (Homo sapiens, UniProt Q13224)", "OBS_VALUE": 91}
{"COMPOUND": "CC(C(=O)Nc1ccc(C(F)(F)F)cc1)c1cccc2nccn12 (centres unmarked)", "TARGET_DESC": "Human GRIN1 and human GRIN2B expressing HEK293 cells (Homo sapiens, UniProt Q13224)", "OBS_VALUE": 89}
{"COMPOUND": "O=C(Cc1cccc2nccn12)Nc1ccc(OC(F)(F)F)nc1", "TARGET_DESC": "Human GRIN1 and human GRIN2B expressing HEK293 cells (Homo sapiens, UniProt Q13224)", "OBS_VALUE": 85}

Please report the measured inhibition at 10 µM for COc1ccc(NC(=O)Cc2cccc3nccn23)cc1F
92

---

TARGET_DESC: Human GRIN1 and human GRIN2B expressing HEK293 cells (Homo sapiens)
Construct: host or cells: HEK293
ASSAY_EXPLANATION: NR2B Ca2+ flux assay
Assay type: cell-based
STUDY_CONDITIONS: 10 μM test compound, glutamic acid/glycine stimulated Fluo-4 fluorescence, FLIPR, read-out: inhibitory rate (@10 μM)
MEASURED_QUANTITY: inhibition at 10 µM (%)
// return numeric value only (unit: %, not printed)

Would you please look over these solved cases?
{"MOLECULE": "Cc1ccc2nccn2c1CC(=O)Nc1ccc(C(F)(F)F)cc1", "TARGET_DESC": "Human GRIN1 and human GRIN2B expressing HEK293 cells (Homo sapiens)", "inhibition at 10 µM [%]": 93}
{"MOLECULE": "Cc1cc(CC(=O)Nc2ccc(C(F)(F)F)cc2)n2ccnc2c1", "TARGET_DESC": "Human GRIN1 and human GRIN2B expressing HEK293 cells (Homo sapiens)", "inhibition at 10 µM [%]": 51}
{"MOLECULE": "O=C(Cc1cccc2nccn12)Nc1ccc(C(F)(F)F)cn1", "TARGET_DESC": "Human GRIN1 and human GRIN2B expressing HEK293 cells (Homo sapiens)", "inhibition at 10 µM [%]": 80}
{"MOLECULE": "CCc1ccc(NC(=O)Cc2cccc3nccn23)cc1F", "TARGET_DESC": "Human GRIN1 and human GRIN2B expressing HEK293 cells (Homo sapiens)", "inhibition at 10 µM [%]": 94}

Please report the measured inhibition at 10 µM for CN(C(=O)Cc1cccc2nccn12)c1ccc(C(F)(F)F)cc1
56

Please report the measured inhibition at 10 µM for O=C(Cc1cccc2nccn12)Nc1ccc(C(F)(F)F)cc1F
90

Please report the measured inhibition at 10 µM for O=C(Cc1cccc2nccn12)Nc1cc2ccccc2s1
83

---

TARGET_DESC: Human GRIN1 and human GRIN2B expressing HEK293 cells (Homo sapiens)
Construct: host or cells: HEK293
ASSAY_EXPLANATION: NR2B Ca2+ flux assay
Assay type: cell-based
STUDY_CONDITIONS: 10 μM test compound, glutamic acid/glycine stimulated Fluo-4 fluorescence, FLIPR, read-out: inhibitory rate (@10 μM)
Outcome label depends on inhibition at 10 µM relative to 80%: at/above gives yes, below gives no.

Reference set (10 entries):
{"COMPOUND": "COc1ccc2nccn2c1CC(=O)Nc1ccc(OC(F)(F)F)cc1", "CLASS": "yes"}
{"COMPOUND": "CCc1ccc2nccn2c1CC(=O)Nc1ccc(C(F)(F)F)cc1", "CLASS": "yes"}
{"COMPOUND": "COc1c(F)cc(NC(=O)Cc2cccc3nccn23)cc1F", "CLASS": "yes"}
{"COMPOUND": "COc1ccc(NC(=O)Cc2cccc3nccn23)cc1", "CLASS": "yes"}
{"COMPOUND": "O=C(Cc1cc(F)cc2nccn12)Nc1ccc(C(F)(F)F)cc1", "CLASS": "yes"}
{"COMPOUND": "Cc1cccc(NC(=O)Cc2cccc3nccn23)c1", "CLASS": "no"}
{"COMPOUND": "CCc1ccc2nccn2c1CC(=O)Nc1ccc(OC(F)(F)F)cc1", "CLASS": "yes"}
{"COMPOUND": "O=C(Cc1cccc2nccn12)Nc1ccc(F)c(C(F)F)c1", "CLASS": "no"}
{"COMPOUND": "Cc1ccc(NC(=O)Cc2cccc3nccn23)cc1", "CLASS": "yes"}
{"COMPOUND": "O=C(Cc1c(F)ccc2nccn12)Nc1ccc(C(F)(F)F)cc1", "CLASS": "no"}

Decide: is the reported value of inhibition at 10 µM for O=C(Cc1cccc2nccn12)Nc1ccc(Br)cc1 equal to or greater than 80%?
yes

Decide: is the reported value of inhibition at 10 µM for CCN(C(=O)Cc1cccc2nccn12)c1ccc(OC(F)(F)F)cc1 equal to or greater than 80%?
no

Decide: is the reported value of inhibition at 10 µM for COc1ccc(NC(=O)Cc2cccc3nccn23)cn1 equal to or greater than 80%?
no

---

TARGET_DESC: Human GRIN1 and human GRIN2B expressing HEK293 cells (Homo sapiens)
Construct: host or cells: HEK293
ASSAY_EXPLANATION: NR2B Ca2+ flux assay
Format: cell-based
STUDY_CONDITIONS: 10 μM test compound, glutamic acid/glycine stimulated Fluo-4 fluorescence, FLIPR, read-out: inhibitory rate (@10 μM)
# key: entry, value: inhibition at 10 µM

Please report the measured inhibition at 10 µM for Cc1cn2c(CC(=O)Nc3ccc(OC(F)(F)F)cc3)cccc2n1
91%

Please report the measured inhibition at 10 µM for O=C(Cc1cccc2nccn12)Nc1ccc(Oc2ccccc2)cc1
71%

Please report the measured inhibition at 10 µM for CC(C(=O)Nc1ccc(OC(F)(F)F)cc1)c1cccc2nccn12 (centres unmarked)
94%

Please report the measured inhibition at 10 µM for O=C(Cc1cccc2nccn12)Nc1ccc(OC(F)(F)F)cc1
93%

Please report the measured inhibition at 10 µM for O=C(Cc1cccc2nccn12)Nc1ccc(F)cc1
83%

---

TARGET_DESC: Human GRIN1 and human GRIN2B expressing HEK293 cells (Homo sapiens, UniProt Q13224)
Construct: host or cells: HEK293
ASSAY_EXPLANATION: NR2B Ca2+ flux assay
Type: cell-based
STUDY_CONDITIONS: 10 μM test compound, glutamic acid/glycine stimulated Fluo-4 fluorescence, FLIPR, read-out: inhibitory rate (@10 μM)
Outcome label depends on inhibition at 10 µM relative to 90%: at/above gives Y, below gives N.

Reference set (4 entries):
{"COMPOUND": "O=C(Cc1cccc2nccn12)Nc1ccc(OC2CCC2)cc1 [Example 75]", "TARGET_DESC": "Human GRIN1 and human GRIN2B expressing HEK293 cells (Homo sapiens, UniProt Q13224)", "CLASS": "N"}
{"COMPOUND": "O=C(Cc1cc(F)cc2nccn12)Nc1ccc(OC(F)(F)F)cc1 [Example 86]", "TARGET_DESC": "Human GRIN1 and human GRIN2B expressing HEK293 cells (Homo sapiens, UniProt Q13224)", "CLASS": "Y"}
{"COMPOUND": "Cc1ccc2nccn2c1CC(=O)Nc1ccc(OC(F)(F)F)cc1 [Example 79]", "TARGET_DESC": "Human GRIN1 and human GRIN2B expressing HEK293 cells (Homo sapiens, UniProt Q13224)", "CLASS": "Y"}
{"COMPOUND": "O=C(Cc1cccc2nccn12)Nc1ccc(F)cc1F [Example 27]", "TARGET_DESC": "Human GRIN1 and human GRIN2B expressing HEK293 cells (Homo sapiens, UniProt Q13224)", "CLASS": "N"}

Decide: is the reported value of inhibition at 10 µM for O=C(Cc1cccc2nccn12)Nc1ccc(C2CC2)c(F)c1 [Example 12] equal to or greater than 90%?
Y

Decide: is the reported value of inhibition at 10 µM for O=C(Cc1cccc2nccn12)Nc1ccc(OCC(F)(F)F)cc1 [Example 38] equal to or greater than 90%?
N
